PROCEDURE SUMMARY: CCTE_Mundy_HCI_iCellGABA_NOG_NeuronCount: CCTE's Neurite Outgrowth Assay in iCellGABA cells for Neuron Count, Mundy Lab
Activity calls are given as the source filed them. How the source made its calls: active means hit-call score of the fitted dose curve at least 0.9, where 1 is the maximum; inactive means score below 0.9.

MOLECULE | AC50
CCOC(=O)CC(SP(=S)(OC)OC)C(=O)OCC (configuration not stated) | 50 µM (active)
CCOP(=O)(OCC)Oc1cc(C)nc(C(C)C)n1 | inactive
COP(=S)(OC)SCN1C(=O)c2ccccc2C1=O | 9.92 µM (active)
CCOP(=S)(Oc1cnc(C(C)(C)C)nc1)OC(C)C (configuration not stated) | inactive
COP(=O)(OC)C(O)C(Cl)(Cl)Cl (configuration not stated) | 0.205 µM (active)
CCCSP(=O)(OCC)SCCC | inactive
CNC(=O)CSP(=O)(OC)OC | 18.9 µM (active)
